Tested on: SNB-75 CNS
experiment notes: NCI-60 one-dose screen, 48 h
condition description: 10 µM unless noted
About 83,000 compounds went through this panel and 20% of them were active in at least one assay; those are over-represented in the sample as a whole. Active and inactive are the calls of the source. Rule for the calls: active = growth percent below 10; inactive = the rest.
Bench note: report the call from active, inactive

Field: example entries. Status: answers known.
compound	label
O=c1[nH]ncc(Br)c1Br	inactive
Nc1c(C(=O)Nc2c(Cl)cccc2Cl)sc2nc3c(cc12)C(=O)CCC3	inactive
COC(=O)[C@]12CC[C@@H](C(/C=C/c3cccnc3)=N/O)[C@@H]1[C@H]1CC[C@@H]3[C@@]4(C)CC(=C/c5cccnc5)/C(=N/O)C(C)(C)[C@@H]4CC[C@@]3(C)[C@]1(C)CC2	inactive
CN1CCN(c2ccc3nc(-c4[nH]ncc4Nc4ncnc5c4OCCCN5)[nH]c3c2)CC1	active

Read the next record carefully.
Each compound tested received a call. Report the one for C/C(=C(/c1ccccc1)c1ccc(N2C(=O)c3cccc4c(NCc5ccccc5)ccc(c34)C2=O)cc1)c1ccccc1 .
inactive

----------
Each entry below carries its recorded growth.
Tested on: PC-3 prostate
experiment notes: NCI-60 one-dose screen, 48 h (100 = growth as untreated, 0 = no growth, -100 = all killed)
condition description: 10 µM unless noted
Compounds without any hit were thinned out: in the full panel of roughly 83,000, 20% have a hit.
Give just the numeric value; % need not be written.

                                   compound  readout_type  observed_value
0  COc1ccc(-c2n/c(=C\c3c(O)[nH]c4ccc(OC)cc34)cc3c2=Nc2ccccc2-3)cc1        growth            75.8

# compound COc1ccc2[nH]c(-c3ccc(Cl)cc3)cc(=O)c2c1 ; its growth = 88

The reported growth of the compound Cc1cccc(C)c1NC(=O)CSC(=S)N1CCN(CCOCCO)CC1 was 99.7

Lab book: growth of C#CCC(C)(O)/C=C/C1=C(C)CCCC1(C)C (stereo not given) noted as 77.6

Please fill in: growth reported for C=C(C)[C@@H]1CC[C@]2(C(=O)O)CC[C@]3(C)[C@H](CC[C@@H]4[C@@]5(C)C/C(=C/c6cccc(I)c6)C(=O)C(C)(C)[C@@H]5CC[C@]43C)[C@@H]12 = 15.5

Entry O=C1CNCCN1 — recorded growth = 96.5

Form field growth, entry O=C(O)c1cccc2c1Cc1cc([N+](=O)[O-])ccc1-2 : 110

The value of growth measured for the compound CCCCCCCCNc1cccc2c1C(=O)c1ccccc1C2=O turned out to be 104

Per the record, CC1(C)C(=O)/C(=C\c2ccccn2)C[C@]2(C)[C@H]3CC[C@@H]4[C@@H](C(=O)/C=C/c5ccccn5)CC[C@@]4(C)[C@]3(C)CC[C@@H]12 has growth of 9.61

For reference, reported growth for Cn1cc(-c2nc(-c3c[nH]c4ncccc34)cs2)c2cc(Br)ccc21 stands at 76.7

Value of growth reported for the compound Clc1ccc2[nH]cc(-c3nc(-c4c[nH]c5ncccc45)cs3)c2c1 is 39.2

Form field growth, entry Clc1ccc(Cn2cc(-c3nc4ccc(Br)nc4n3Cc3ccc(Cl)cc3)c3cccnc32)cc1 : 65.7

The value of growth measured for the compound COc1cc2nc(Cl)nc(Nc3cccc(C(=O)/C=C/c4ccc(F)cc4)c3)c2cc1OC turned out to be 46.4

Record CC(Cc1ccco1)C(=O)NC(N)=O (stereo not given) , field growth: 98.4

Data point: Cc1ccc(/C=C(\C#N)c2cc3ccccc3n2C)cc1 ; growth = 36.1

For reference, reported growth for CCc1ccccc1NC(=O)c1sc2nc3c(cc2c1N)CCCC3 stands at 52.9

Memo: C=C(C)[C@@H]1CC[C@]2(C(=O)N3CCCNCC3)CC[C@]3(C)[C@H](CC[C@@H]4[C@@]5(C)CCC(=O)C(C)(C)[C@@H]5CC[C@]43C)[C@@H]12 , reported growth: 78.3

The recorded growth for Cn1c(=O)c2c(nc(Br)n2CC(=O)Nc2ccc(F)cc2)n(C)c1=O is 75.5

What the record says about COC(=O)c1cc(=O)nc(N/N=C/c2ccc(C)cc2)s1 : growth is 91.2

The recorded growth for O=C1C=Cc2ncccc2C1=O is 88.5
